organism: Mus musculus; test: Inhibition of mouse allogenic mixed leukocyte response (MLR); type: functional
pIC50: −log10 of the molar value.
experimental.readout: pIC50

Some compounds with recorded pIC50:
CCCCCCCCCCCCC/C=C/C[C@@H](O)[C@H](O)C(N)(CO)CO; 7.25
CCCCCCCCCCCCCCCC(N)(CO)CO; 8.54
CCCCCCC(O)CCCCCC/C=C/C[C@@H](O)[C@H](O)C(N)(CO)CO (some centres not stated); 8.33

(A) CCCCCCCCCCCCC(N)(CO)CO
(B) CCCCCCCCCCC(N)(CO)CO
(C) CCCCCCCCCCCCCCCCC(N)(CO)CO
(D) CCCCCCCCCCCCCCCCCCC(N)C(=O)O (configuration not stated)
Challenge: Arrange these 4 compounds in increasing order of pIC50. As an answer, provide the labels arranged in the order called for.
Response given: B, A, D, C

(1) CCCCCCCCCCCCCCCCCCCCC(N)(CO)CO
(2) CCCCCCCCCCCCCCC(N)(CO)CO
(3) CCCCCCCCCCCCCCCC[C@@H](O)[C@H](O)C(N)(CO)CO
(4) CCCCCCCCCCCCCCCCCCCCCCC(N)(CO)CO
Challenge: Arrange these 4 compounds in increasing order of pIC50. As an answer, provide the labels arranged in the order called for.
Response given: 4, 3, 1, 2

====

species on record: Mus musculus; test: Inhibition of mouse allogenic mixed leukocyte response (MLR); assay type: functional
experimental.readout: IC50 (µM)

CCCCCCCCCCCCCC(N)(CO)CO; 0.012

(A) CCCCCCC(O)CCCCCCCCC[C@@H](O)[C@H](O)C(N)(CO)CO (stereo partly drawn)
(B) CCCCCCCCC(N)(CO)CO
Challenge: Quick check, higher IC50 between A and B ? I would appreciate it if you answered with the label of your choice.
Response given: B
